experiment: Percutaneous permeability through human SCE membrane in Franz diffusion cell after 12 hrs by UV-Vis spectrophotometry relative to hydroxytyrosol; format: ADME
ENDPOINT LABEL: fold change (FC)

# input Fill in the blank: the reported fold change (FC) of CCCCCCCCCCCCCCCC(=O)OCCc1ccc(O)c(O)c1 [HYDROXYTYROSOL PALMITATE] is ____.
# output 1.7

# input Fill in the blank: the reported fold change (FC) of CCCCCCCCCCCCCCCCCC(=O)OCCc1ccc(O)c(O)c1 [HYDROXYTYROSOL STERATE] is ____.
# output 1.7

# input Fill in the blank: the reported fold change (FC) of CCCCCCCCCC(=O)OCCc1ccc(O)c(O)c1 [HYDROXYTYROSOL DECANOATE] is ____.
# output 2.2

# input Fill in the blank: the reported fold change (FC) of CCCC(=O)OCCc1ccc(O)c(O)c1 [HYDROXYTYROSOL BUTANOATE] is ____.
# output 1.8

# input Fill in the blank: the reported fold change (FC) of CCCCCCCC/C=C\CCCCCCCC(=O)OCCc1ccc(O)c(O)c1 is ____.
# output 3.6

# input Fill in the blank: the reported fold change (FC) of CCCCC/C=C\C/C=C\CCCCCCCC(=O)OCCc1ccc(O)c(O)c1 is ____.
# output 2.2

----------
test: Octanol-water partition coefficient, log Kow of the compound by HPLC analysis; type: physicochemical; conditions: read-out: log KOW
ENDPOINT LABEL: logP

# input Fill in the blank: the reported logP of CCCCCCCC/C=C/CCCCCCCC(=O)OCCc1ccc(O)c(O)c1 is ____.
# output > 3.3

# input Fill in the blank: the reported logP of CCCCCCCCCCCCCCCCCC(=O)OCCc1ccc(O)c(O)c1 [HYDROXYTYROSOL STERATE] is ____.
# output > 3.3

# input Fill in the blank: the reported logP of CCCCCCCC/C=C\CCCCCCCC(=O)OCCc1ccc(O)c(O)c1 is ____.
# output > 3.3

# input Fill in the blank: the reported logP of CCCC(=O)OCCc1ccc(O)c(O)c1 [HYDROXYTYROSOL BUTANOATE] is ____.
# output 1.64
